Reference for the values: patent US12383631B2

Molecular target: T1, human IL-18BP (Homo sapiens, UniProt O95998)
T1 sequence (O95998 31-194): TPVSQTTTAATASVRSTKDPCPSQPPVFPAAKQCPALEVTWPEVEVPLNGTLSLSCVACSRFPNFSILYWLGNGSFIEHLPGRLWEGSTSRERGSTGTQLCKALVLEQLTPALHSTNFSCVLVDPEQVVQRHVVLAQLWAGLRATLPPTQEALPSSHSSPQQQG
Assay: IL-18BP binding AlphaLISA assay (Example 4 / 17B)
Settings: IL-18 binding protein AlphaLISA
pKd: −log10 of the molar value.

{"molecule": "C179: IL-18 polypeptide: E6K, K8E, V11I, C38A, K53A, T63A, C76A, Q103R, C127A (protein) YFGKLKSELSIIRNLNDQVLFIDQGNRPLFEDMTDSDARDNAPRTIFIISMYADSQPRGMAVAISVKCEKISTLSAENKIISFKEMNPPDNIKDTKSDIIFFRRSVPGHDNKMQFESSSYEGYFLAAEKERDLFKLILKKEDELGDRSIMFTVQNED", "pKd": "< 5.55"}
